Hi there, I'd appreciate the recorded pIC50 for every entry that follows.
- EXPERIMENTAL_SYSTEM: human TRPV4 (Homo sapiens, UniProt Q9HBA0)
- Construct: host or cells: tetracycline-inducible Flp-In T-REx 293 cells
- Sequence (Q9HBA0 whole entry): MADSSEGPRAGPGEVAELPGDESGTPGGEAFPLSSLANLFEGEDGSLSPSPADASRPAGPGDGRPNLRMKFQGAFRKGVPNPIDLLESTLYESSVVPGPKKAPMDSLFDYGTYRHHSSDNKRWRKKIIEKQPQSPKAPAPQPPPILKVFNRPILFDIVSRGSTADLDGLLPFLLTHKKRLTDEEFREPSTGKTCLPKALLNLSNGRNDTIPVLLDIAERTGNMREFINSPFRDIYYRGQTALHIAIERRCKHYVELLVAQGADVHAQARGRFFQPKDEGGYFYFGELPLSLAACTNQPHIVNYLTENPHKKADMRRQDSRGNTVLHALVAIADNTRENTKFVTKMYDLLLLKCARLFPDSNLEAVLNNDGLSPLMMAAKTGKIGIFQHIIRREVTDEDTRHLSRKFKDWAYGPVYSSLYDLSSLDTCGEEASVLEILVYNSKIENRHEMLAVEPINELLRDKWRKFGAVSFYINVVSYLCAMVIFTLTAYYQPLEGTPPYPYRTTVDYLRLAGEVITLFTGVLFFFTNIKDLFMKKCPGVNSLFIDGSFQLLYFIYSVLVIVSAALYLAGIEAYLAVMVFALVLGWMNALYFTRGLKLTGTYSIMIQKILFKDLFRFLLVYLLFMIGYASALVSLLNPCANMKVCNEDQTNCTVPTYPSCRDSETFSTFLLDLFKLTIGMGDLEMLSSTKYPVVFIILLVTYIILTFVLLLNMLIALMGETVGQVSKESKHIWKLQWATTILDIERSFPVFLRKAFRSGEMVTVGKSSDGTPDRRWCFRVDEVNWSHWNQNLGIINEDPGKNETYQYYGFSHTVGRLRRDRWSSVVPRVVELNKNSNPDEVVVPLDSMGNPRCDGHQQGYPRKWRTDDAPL
- ASSAY_NAME: Hypotonicity-induced Ca2+ influx (Fluo-4, FDSS)
- Format: cell-based
- TEST_CONTEXT: Flp-In T-REx 293 cells expressing human TRPV4, examples listed under heading 'Human IC50<50 nM'
pIC50: −log10 of the molar value.

Please review the following examples before continuing.
1. O=C([C@H](O)c1cccc(Cl)c1)N1CCc2nc(C3(c4cccc(F)c4)CC3)[nH]c(=O)c2C1 [3-31] : > 7.30
2. O=C([C@H](O)c1cccc(-c2cc(F)cc(Cl)c2)c1)N1CCc2nc(C3(c4ccccc4)CC3)[nH]c(=O)c2C1 [44-77] : > 7.30

Below are some molecules; for each one, tell me its pIC50.
1. O=C(C(O)c1cccc(-c2ccc(F)c(F)c2)c1)N1CCc2nc(C3(c4ccccc4)CC3)[nH]c(=O)c2C1 (stereo not shown) [44-49]
2. O=C([C@H](O)c1cccc(-c2cccc(F)c2)c1)N1CCCc2nc(C3(c4cccc(C5CCCCC5)c4)CC3)[nH]c(=O)c2C1 [52-1]

1. > 7.30
2. > 7.30
